// provenance: the supplement of paper PMC5412046

Here, each record is paired with measured area under the dose-response curve data.
Tested on: SB.msgc-1
assay: area under the dose-response curve of % viability (trapezoidal, 11 doses) (% viability x log10 concentration); higher = less cytotoxic
experimental.context: SB.msgc-1 (sporadic gastric cancer)
Would you mind answering with just the numeric figure?

compound: COc1ccc(C2(C#N)CCC(C(=O)O)CC2)cc1OC1CCCC1 (stereo not drawn) [Cilomilast] (top concentration 46.0829 µM)
target.of.assay: SB.msgc-1
area under the dose-response curve: 370

Prompt: Query area under the dose-response curve for ClC1=CC=C(CCCOC/2=N/NC(=O)C(=C2NCC3=CN=CC=C3)/Br)C=C1 [Parogrelil] (top concentration 46.0829 µM)
Response: 465

Prompt: Complete the entry with area under the dose-response curve for COc1cccc(Nc2c(C(N)=O)cnc3c(C)cc([S+](=O)([O-])c4cccc(C(=O)N(C)C)c4)cc23)c1 (top concentration 23.0415 µM)
Response: 597
